# measuredOn: UniProt:P08183
# Sequence (P08183 whole entry): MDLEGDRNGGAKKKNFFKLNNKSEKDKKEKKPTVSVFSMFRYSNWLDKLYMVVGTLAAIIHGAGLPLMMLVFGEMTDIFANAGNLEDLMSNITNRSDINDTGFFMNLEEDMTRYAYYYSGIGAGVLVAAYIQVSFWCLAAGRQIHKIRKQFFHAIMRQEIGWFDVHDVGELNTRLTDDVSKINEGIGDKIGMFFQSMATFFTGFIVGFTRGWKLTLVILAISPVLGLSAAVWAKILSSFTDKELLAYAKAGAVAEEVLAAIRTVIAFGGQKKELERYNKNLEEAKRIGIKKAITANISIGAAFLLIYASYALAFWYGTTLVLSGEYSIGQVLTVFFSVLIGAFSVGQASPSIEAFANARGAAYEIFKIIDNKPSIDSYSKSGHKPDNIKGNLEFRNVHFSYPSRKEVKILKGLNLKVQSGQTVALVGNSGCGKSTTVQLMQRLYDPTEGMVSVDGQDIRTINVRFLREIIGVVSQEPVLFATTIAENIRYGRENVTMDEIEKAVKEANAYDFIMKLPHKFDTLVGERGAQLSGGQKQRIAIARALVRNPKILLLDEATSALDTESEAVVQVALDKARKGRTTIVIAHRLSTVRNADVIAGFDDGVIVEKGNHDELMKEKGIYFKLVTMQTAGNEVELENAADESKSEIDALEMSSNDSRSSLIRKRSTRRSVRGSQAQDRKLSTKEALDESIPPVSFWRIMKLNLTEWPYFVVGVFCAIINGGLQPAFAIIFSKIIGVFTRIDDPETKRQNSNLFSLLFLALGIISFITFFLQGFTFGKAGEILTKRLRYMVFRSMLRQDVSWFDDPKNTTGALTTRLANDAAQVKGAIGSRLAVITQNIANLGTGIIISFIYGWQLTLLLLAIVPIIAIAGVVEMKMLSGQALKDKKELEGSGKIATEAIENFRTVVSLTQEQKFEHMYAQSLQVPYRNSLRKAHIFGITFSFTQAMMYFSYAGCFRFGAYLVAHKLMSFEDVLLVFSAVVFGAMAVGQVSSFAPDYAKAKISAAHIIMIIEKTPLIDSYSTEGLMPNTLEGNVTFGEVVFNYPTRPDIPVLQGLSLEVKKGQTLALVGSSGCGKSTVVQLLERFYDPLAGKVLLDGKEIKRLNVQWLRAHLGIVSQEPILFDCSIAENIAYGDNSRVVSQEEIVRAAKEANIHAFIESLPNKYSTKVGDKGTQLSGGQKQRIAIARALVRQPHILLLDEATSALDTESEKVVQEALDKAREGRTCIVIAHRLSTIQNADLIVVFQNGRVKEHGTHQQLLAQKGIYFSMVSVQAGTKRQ
# method: TP_TRANSPORTER: inhibition of Taxol transepithelial transport (basal to apical) in Caco-2 cells
metric: Ki (nM)
Record the value in nM, omitting the unit from your answer.

Given the compound O=C(C(c1ccccc1)c1ccccc1)N1CCN(C[C@@H](O)COc2cccc3ncccc23)CC1 , what is its reported Ki?
400
